# ASSAY PROCEDURE: Pharmacokinetic assay in Balb/c mice (plasma and brain tissue)
# Format: in vivo
# CONDITIONS: male, mouse, po; Balb/c mice, 5 mg/kg p.o., plasma; read-out: Peak time tmax
MEASUREMENT KIND: Tmax
Your answer should be a number followed by the unit of measure.

Please report the recorded Tmax for C[C@@]1(O)CC[C@@]2(F)[C@H](CC[C@H]3[C@@H]4CC[C@H](C(=O)Cn5cc(C#N)cn5)[C@@]4(C)CC[C@@H]32)C1 [Example 2] .
1 h

* * *

# ASSAY PROCEDURE: Pharmacokinetic assay in Balb/c mice (plasma and brain tissue)
# Format: in vivo
# CONDITIONS: male, Balb/c, mouse, in vivo, po, 5 mg/kg
Quick list: Tmax per entry.

COMPOUND: C[C@@]1(O)CC[C@@]2(F)[C@H](CC[C@H]3[C@@H]4CC[C@H](C(=O)Cn5ncnn5)[C@@]4(C)CC[C@@H]32)C1
Tmax: 30 min
--
COMPOUND: C[C@@]1(O)CC[C@]2(F)C3CC[C@]4(C)[C@@H](C(=O)Cn5cc(C#N)c(Cl)n5)CC[C@H]4[C@@H]3CC[C@@H]2C1 (stereo partly shown)
Tmax: 60 min
--
COMPOUND: C[C@@]1(O)CC[C@@]2(F)[C@H](CC[C@H]3[C@@H]4CC[C@H](C(=O)COc5cnc(C(F)(F)F)nc5)[C@@]4(C)CC[C@@H]32)C1
Tmax: 60 min

Please report the recorded Tmax for `Cc1nnn(CC(=O)[C@H]2CC[C@H]3[C@@H]4CC[C@@H]5C[C@](C)(O)CC[C@]5(F)[C@H]4CC[C@]23C)n1` .
30 min
